// reported inhibition per item
Assay: inhibitors of TNFa-induced NFkB p65 translocation, primary screen, imaging, HUVEC, MLSMR starter and 10KST1 sets (AID 438);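 also: compound added about 3h40 before a 20 min TNFalpha stimulation; signal is the nuclear over cytoplasmic p65 intensity ratio per well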
Conditions: HUVEC TNFa-induced p65 nuclear translocation; at 2 µM, stronger effect = higher value, 0% TNFa-plus-vehicle, 100% no-TNFa wells
recorded-metric: inhibition (%)

INSERT INTO assay_data (compound, measured_value) VALUES
  ('COC(=O)C1CCN(c2nc3ccccc3nc2C(C#N)C(=O)NCCc2ccccc2)CC1 (stereo not drawn)', -8.8),
  ('COc1ccc(C(=O)NCc2ccccc2OC)cc1', -0.6),
  ('O=C(CN1CCc2[nH]c3ccccc3c2C1)N1CCCCC1', 3.2),
  ('CC(=O)Nc1c(C(=O)C2CC2)oc2ccccc12', 2.2),
  ('CC1=C(C(=O)OCC(C)C)C(c2cc3c(cc2Br)OCO3)NC(=O)N1C (stereo not drawn)', -3.6),
  ('CCOC(=O)N1CCN(S(=O)(=O)c2cc(Cl)ccc2Cl)CC1', 5.2),
  ('O=C(CN(C1CCCCC1)S(=O)(=O)c1ccccc1)NCc1cccnc1', 2),
  ('O=C(Cn1cnc2c(nnn2-c2ccc(F)cc2)c1=O)N1CCCc2ccccc21', 0.4),
  ('CCOC(=O)c1c(C)[nH]c(C(=O)CSc2nc3ccccc3o2)c1C', 10.6),
  ('C=CCOc1nc2c(c(=O)n(Cc3ccc(Cl)cc3)c(=O)n2C)n1C', -5.1),
  ('Cc1cc(=O)n2[nH]c(N3C(=O)CCC3=O)nc2n1', -1.3),
  ('CSc1nc(N)nc(SCCS(=O)(=O)c2ccc(Cl)cc2)c1C#N', 2.8),
  ('O=c1c2sc3nc(N4CCOCC4)c4c(c3c2ncn1Cc1ccco1)CCCC4', 2.3),
  ('Cn1c(CSc2ncn[nH]2)nc2ccccc21', -6.4),
  ('CCOC(=O)c1ccc(NC(=O)Nc2ccn(C)n2)cc1', 8.8),
  ('Cn1c(=O)c2nc(Cl)n(Cc3ccc(Cl)cc3Cl)c2n(C)c1=O', -22.4),
  ('C=CCOn1c(=O)c(-c2ccc(OC)cc2)[n+]([O-])c2ccccc21', -10.1),
  ('COc1cccc(OCc2nc3ccccc3[nH]2)c1', -4.8),
  ('CC(NC(=O)Nc1cccnc1)(C(F)(F)F)C(F)(F)F', -5.1),
  ('Cc1nnc(N(C)C(=O)Cc2ccc3c(c2)OCO3)s1', -6.1),
  ('CCOC(=O)c1[nH]c2ccc(F)cc2c1NC(=O)CCN1CCSCC1', -1.1),
  ('COc1ccc(Cl)cc1NC(=O)CCN1CCN(c2ccccc2C)CC1', 21.9),
  ('COc1ccc(-c2cc3n(n2)CCc2nc4ccccc4n2-3)cc1', -32.3);

---

Assay: inhibitors of E-selectin induction by TNFa, primary screen, imaging, HUVEC, immunofluorescence, MLSMR starter and 10KST1 sets (AID 487);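 also: 100% = median nuclei count of all wells on the same plate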
Conditions: HUVEC TNFalpha-induced E-selectin immunofluorescence imaging, at 2 µM; measured here: cell number, toxicity
// reported nuclei count per item
recorded-metric: nuclei count

INSERT INTO results (compound, measured_value) VALUES
  ('O=C(CN1C(=O)COc2ccccc21)N(Cc1cccnc1)Cc1ccccc1F', '106%'),
  ('CC1=C(C#N)C(=O)OC(C)(C)C1', '101%'),
  ('N#CC1=C(N)C(C#N)(C#N)[C@H](c2ccsc2)[C@H]2COCC=C12', '93.1%'),
  ('Clc1ccc(-n2ncc3c(NCc4ccco4)ncnc32)cc1', '154%'),
  ('Cc1ccc2oc(-c3ccccc3C(=O)O)cc(=O)c2c1', '125%'),
  ('O=C1C(=O)N(Cc2cccnc2)C(c2ccccn2)/C1=C(/O)c1ccc(F)cc1 (stereo unspecified)', '98%');
